# AGS (gastric adenocarcinoma) cells: GI50 values follow
Your answer is read as µM, so omit the unit and give the number.

compound: COc1cccc2c1C(=O)c1c(O)c3c(c(O)c1C2=O)C[C@@](O)(C(=O)CO)C[C@@H]3O[C@H]1C[C@H](N)[C@H](O)[C@H](C)O1 [doxorubicin, Doxorubicin, reference compound]
unit-text: µM
GI50: 0.03

compound: Cc1c(-c2ccccc2)oc(=O)c2sc3nc4ccccc4cc3c12
unit-text: µM
GI50: 83.4

compound: COC(=O)c1sc2nccnc2c1C#Cc1ccccn1
unit-text: µM
GI50: 9.25

compound: O=c1oc(-c2ccccc2)c(Cl)c2c1sc1nccnc12
unit-text: µM
GI50: 36.3

compound: COC(=O)c1sc2nccnc2c1C#Cc1ccsc1
unit-text: µM
GI50: 46.1

compound: Nc1ccc(-c2cc3c(sc4nccnc43)c(=O)o2)cc1
unit-text: µM
GI50: 74.3

Notebook: `COC(=O)c1sc2nccnc2c1C#Cc1ccc(C)cc1` , GI50 read as 89.2

Notebook: `COC(=O)c1sc2nccnc2c1C#Cc1ccc(N)cc1` , GI50 read as 51.4

Notebook: `COC(=O)c1sc2nccnc2c1C#Cc1ccc(F)cc1` , GI50 read as 70.7
